Test system: HCT116/VM46 (multidrug and paclitaxel resistant subline of HCT116)
procedureDetails: 72 hr ATP luminescence proliferation inhibition, HCT116/VM46
Format: cell-based, human
experimentalConditions: Homo sapiens, HCT-116/VM46, HCT116/VM46 cell line, read-out: Proliferation Inhibition of Cancer Cells EC50, HCT116/VM46
pEC50: recorded values
Entry type: numeric. Quantity: pEC50, the -log10 of concentration in molar units.

Worked set:
* CCOc1ccc2[nH]c(C(=O)N3C[C@@H](CCl)c4c3cc(O)c3[nH]c(C(=O)N5CCOCC5)cc43)cc2c1 [Ia-02] | 10.35
* Nc1ccc2[nH]c(C(=O)N3C[C@@H](CCl)c4c3cc(O)c3[nH]c(C(=O)N5CCOCC5)cc43)cc2c1 [Ia-19] | 8.46
* O=C(c1cc2c3c(cc(O)c2[nH]1)N(C(=O)c1cc2cc(OC4CCOCC4)ccc2[nH]1)C[C@H]3CCl)N1CCOCC1 [Ia-14] | 9.11

// below: pEC50 requested for another compound
Need pEC50 of CC(C)Oc1ccc2[nH]c(C(=O)N3C[C@@H](CCl)c4c3cc(O)c3[nH]c(C(=O)N5CCOCC5)cc43)cc2c1 [Ia-13] , thanks.
9.62

###

Below: a set of entries, each annotated with reported EC50.
Test system: H226 (human mesothelioma (lung) cancer cell line)
procedureDetails: 72 hr ATP luminescence proliferation inhibition, H226
Format: cell-based
experimentalConditions: read-out: Proliferation Inhibition of Cancer Cells EC50, H226
Your answer should be a number followed by the unit of measure.

Sample answers from the record:
- CN(C)CCOc1ccc2[nH]c(C(=O)N3C[C@@H](CCl)c4c3cc(O)c3[nH]c(C(=O)Nc5ccc(O)cc5)cc43)cc2c1 [Ia-27]: 1.4 nM
- COc1ccc2[nH]c(C(=O)N3C[C@@H](CCl)c4c3cc(O)c3[nH]c(C(=O)N5CCN(C)CC5)cc43)cc2c1 [Ia-20]: 6.5 nM
- CN1CCN(C(=O)c2cc3c4c(cc(O)c3[nH]2)N(C(=O)c2cc3cc(N)ccc3[nH]2)C[C@H]4CCl)CC1 [Ia-26]: 9.5 nM
- CNCCOc1ccc2[nH]c(C(=O)N3C[C@@H](CCl)c4c3cc(O)c3[nH]c(C(=O)N5CCOCC5)cc43)cc2c1 [Ia-17]: 1.6 nM

Could you now look at the following compound, please?
Could you tell me which EC50 is on file for CNCCN(CCOCCO)C(=O)c1cc2c3c(cc(O)c2[nH]1)N(C(=O)c1cc2cc(OC)ccc2[nH]1)C[C@H]3CCl [Ia-24] ?
250 nM

###

The reader will find reported pEC50 values listed item by item below.
Test system: H226 (human mesothelioma (lung) cancer cell line)
procedureDetails: 72 hr ATP luminescence proliferation inhibition, H226
Format: cell-based
experimentalConditions: read-out: Proliferation Inhibition of Cancer Cells EC50, H226
pEC50 here: minus log base 10 of the concentration, concentration in moles per litre.

Recorded results for 3 molecules are shown here.
• Nc1ccc2[nH]c(C(=O)N3C[C@@H](CCl)c4c3cc(O)c3[nH]c(C(=O)N5CCNCC5)cc43)cc2c1 [Ia-25] = 7.64
• O=C(Nc1ccc2nc(C(=O)N3C[C@@H](CCl)c4c3cc(O)c3[nH]c(C(=O)N5CCOCC5)cc43)cn2c1)c1ccc(O)cc1 [Ib-01] = 8.62
• CNCCN(C)C(=O)c1cc2c3c(cc(O)c2[nH]1)N(C(=O)c1cc2cc(OC)ccc2[nH]1)C[C@H]3CCl [Ia-21] = 9.00

Switching to the query record.
Any idea what its pEC50 is? The molecule is CC(C)CCOc1ccc2[nH]c(C(=O)N3C[C@@H](CCl)c4c3cc(O)c3[nH]c(C(=O)N5CCOCC5)cc43)cc2c1 [Ia-31]
9.62
